Data credit: paper PMC9482650

- targetSystem: DLG1_3, Q12959
- Sequence (Q12959 457-571): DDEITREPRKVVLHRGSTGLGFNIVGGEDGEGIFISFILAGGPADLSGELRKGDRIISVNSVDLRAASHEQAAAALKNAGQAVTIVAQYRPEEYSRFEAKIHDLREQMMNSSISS
- method: holdup assay
- Design: key: below the threshold = too weak to quantify, mostly under pKd 3.1 to 4
- testSettings: plain residues with an end cap or a label only (N-terminal biotin on a linker: ttds)
resultType: pKd
Hey, just send me the number, nothing else.

A selection of reference data follows.
PKRPFVESNV [TANC2, Q9HCD6] | 3.77
QFQYAKESYI [TAGAP, Q8N103] | 4.05
DPRNTQTSQI [ABRAXAS2, Q15018] | 3.52

Quick one: pKd for LCALPKVTTV [AGMAT, Q9BSE5] ?
4.77

Quick one: pKd for VNKVWDQSSV [CIT, O14578] ?
3.49
